Assignment: determine reported EC50 for the given compounds.
Test system: PKC mediated IL-2 production
PROTOCOL_DETAILS: IL-2 ELISA, human primary T cell, anti CD3+CD28+
Format: cell-based
CONDITION_SUMMARY: Homo sapiens, T-cell, 24 h, human primary T cells stimulated with αCD3 and αCD28, 24 hours

These solved cases illustrate the format of a correct answer.
CC1(C)C[C@H](Nc2nc(Nc3ccc(OC4COC4)c(C#N)c3)ncc2F)C[C@@H]2CCCN21 [Compound 179] ... 100 to 500 nM
Cn1nnn(-c2cc(Nc3ncc(F)c(N[C@@H]4C[C@@H]5CCCN5C(C)(C)C4)n3)c(F)cc2OCC2(CO)COC2)c1=O [Compound 165] ... 500 to 1000 nM
CC1(C)C[C@H](Nc2nc(Nc3ccc(N4CCC(O)CC4)c(C#N)c3)ncc2F)C[C@@H]2CCCN21 [Compound 107] ... 100 to 500 nM
Cn1nnn(-c2cc(Nc3ncc(F)c(N[C@@H]4C[C@@H]5CCCN5C(C)(C)C4)n3)c(F)cc2C#CCO)c1=O [Compound 96] ... < 100 nM
Cc1ccc(Nc2ncc(F)c(N[C@@H]3C[C@@H]4CCCN4C(C)(C)C3)n2)cc1-n1nnn(C2COC2)c1=O [Compound 276] ... < 100 nM

Okay, here is my list. What is EC50 for each of these?
1. Cn1nnn(-c2cc(Nc3ncc(F)c(N[C@@H]4C[C@@H]5CCCN5C(C)(C)C4)n3)c(F)cc2OCC2COCCO2)c1=O (stereo partly shown) [Compound 169]
2. CC1(C)C[C@H](Nc2nc(Nc3ccc(F)c(-n4nnnc4C4CC4)c3)ncc2Cl)C[C@@H]2CCCN21 [Compound 163]

Reply:
1: 1000 to 10000 nM; 2: < 100 nM
